Assay: Half-maximal inhibition of [125I]gastrin binding to guinea pig gastric glands
pIC50: −log10 of the molar value.
Readout kind: pIC50

• O=C(O)CN1C(=O)C(NC(=O)c2ccc(Cl)cc2)N=C(c2ccccc2F)c2ccccc21 (centres undefined) = 5.09
• N#Cc1ccc(C(=O)NC2N=C(c3ccccc3)c3ccccc3NC2=O)cc1 (centres undefined) = 4.66
• CN1C(=O)C(NC(=O)c2cccc(I)c2)N=C(c2ccccc2F)c2ccccc21 (centres undefined) = 6.41
• O=C(NC1N=C(c2ccccc2)c2ccccc2NC1=O)c1ccc(Cl)c(Cl)c1 (centres undefined) = 4.60
• CN1C(=O)C(NC(=O)[C@H](Cc2ccccc2)NC(=O)OC(C)(C)C)N=C(c2ccccc2F)c2ccccc21 (some centres undefined) = 5.92
• O=C(NC1N=C(c2ccccc2F)c2ccccc2NC1=O)c1ccc(C(F)(F)F)cc1 (centres undefined) = 5.02
• CN1C(=O)[C@@H](NC(=O)c2ccccc2I)N=C(c2ccccc2F)c2ccccc21 = 4.96
• Cc1ccc(C(=O)NC2N=C(c3ccccc3F)c3ccccc3NC2=O)cc1 (centres undefined) = 5.30
• O=C(O)CN1C(=O)C(NC(=O)c2cc3ccccc3[nH]2)N=C(c2ccccc2)c2ccccc21 (centres undefined) [CCK antagonist synthetic 20] = 6.19
• CN1C(=O)CN=C(c2ccccc2)c2ccccc21 = 4.03
• CN1C(=O)[C@@H](NC(=O)c2ccc(I)cc2)N=C(c2ccccc2F)c2ccccc21 = 6.28
• O=C(NC1N=C(c2ccccc2)c2ccccc2NC1=O)c1c[nH]c2ccccc12 (centres undefined) = 4.74
• CN1C(=O)[C@@H](NC(=O)c2ccc(C#N)cc2)N=C(c2ccccc2F)c2ccccc21 = 5.05
• CN1C(=O)[C@@H](NC(=O)c2cc3ccccc3[nH]2)N=C(c2ccccc2F)c2ccccc21 = 7.55
• O=C(NC1N=C(c2ccccc2F)c2ccccc2NC1=O)c1cc2ccccc2[nH]1 (centres undefined) = 5.34
• CN1C(=O)[C@@H](NC(=O)c2ccc(Br)cc2)N=C(c2ccccc2)c2ccccc21 = 6.10
• O=C(NC1N=C(c2ccccc2F)c2ccccc2NC1=O)c1ccccc1Cl (centres undefined) = 4.74

###

Assay: Half-maximal inhibition of [125I]gastrin binding to guinea pig gastric glands
This section presents molecules with their documented IC50 values.
Readout kind: IC50 (µM)

* O=C(NC1N=C(c2ccccc2)c2ccccc2NC1=O)c1ccc(F)cc1 (stereo not given) | 9.4
* O=C(Cc1cccc2sccc12)NC1N=C(c2ccccc2F)c2ccccc2NC1=O (stereo not given) | 3.9
* CC(C)(C)c1ccc(C(=O)NC2N=C(c3ccccc3)c3ccccc3NC2=O)cc1 (stereo not given) | 40

###

This section presents compounds with their documented pIC50 values.
Experiment: Half-maximal inhibition of [125I]gastrin binding to guinea pig gastric glands
pIC50: −log10 of the molar value.
Readout kind: pIC50

- O=C(NC1N=C(c2ccccc2)c2ccccc2NC1=O)c1cc2ccccc2[nH]1 (stereo not given): 5.40
- CN1C(=O)[C@H](NC(=O)c2ccc(C(F)(F)F)cc2)N=C(c2ccccc2)c2ccccc21: 5.38
- CN1C(=O)C(NC(=O)c2cc3ccccc3n2C)N=C(c2ccccc2F)c2ccccc21 (stereo not given): 5.80
- CN1C(=O)[C@H](NC(=O)c2ccc(Cl)cc2)N=C(c2ccccc2F)c2ccccc21: 5.28
- O=C(NC1N=C(c2ccccc2F)c2ccccc2NC1=O)c1cc2ccccc2o1 (stereo not given): 4.96
